Entry source: the supplement of paper PMC10681739

TGT: ETS1 (UniProt P14921)
Sequence: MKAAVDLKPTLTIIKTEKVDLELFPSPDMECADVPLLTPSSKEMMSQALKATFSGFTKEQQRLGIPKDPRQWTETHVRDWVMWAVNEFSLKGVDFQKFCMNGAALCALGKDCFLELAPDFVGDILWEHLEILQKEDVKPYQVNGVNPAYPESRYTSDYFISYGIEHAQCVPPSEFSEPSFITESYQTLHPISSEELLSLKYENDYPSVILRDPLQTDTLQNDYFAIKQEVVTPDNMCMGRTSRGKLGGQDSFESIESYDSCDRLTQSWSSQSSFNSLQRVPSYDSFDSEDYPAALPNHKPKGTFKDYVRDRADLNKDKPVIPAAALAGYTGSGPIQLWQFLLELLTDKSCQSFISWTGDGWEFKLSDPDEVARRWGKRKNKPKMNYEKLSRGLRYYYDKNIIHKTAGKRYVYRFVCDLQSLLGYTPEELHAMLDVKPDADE
METHOD NOTES: ETS1 binding intensity (PBM fluorescence), ETS1 alone (arbitrary fluorescence units); higher = stronger binding
CONDITION NOTES: ETS1 concentration 1 nM; RUNX1 concentration 0 nM
Consider the reported ETS1 binding intensity of an entry and match it to a band in Low = under 500, Mid = from 500 up to 2000, High = 2000 and over

Categorize the following entry: GTCTTTCACTCCACTTCCGCCCCCACAAAACATACA High

Categorize the following entry: CTTTGTTGAAAAGGATGTGGTCATCTGATCTTGCTG Mid

Categorize the following entry: GCGCGGCCAGAGAAAGGATGTGGTATAGCAGAAAGT Mid

Categorize the following entry: TACACTCCCACATCCGCTGCGGCGCAACTCACAACA Mid

Categorize the following entry: TTGAATATGAAAGGAAGTGGTTAGGTGATGTGTTCT High

Categorize the following entry: GTGTTGGGTGGCTTCCTGCGGCGTTTCCACTCTCGC Mid

Categorize the following entry: GACTATGTGCTTCCGGTCTCCAATACCGCAGGAGGG High

Categorize the following entry: GCCGCGAGTTCCGCCGGGTGGACCACAAATCCCGAG Low

Categorize the following entry: ACGGGGAAGAACGGAAGTGGTTTCCATGATGGTCTG High

Categorize the following entry: CTGGCAGGCCTCACTTCCTCACCACATGGCCCTCCC Mid

Categorize the following entry: CTTACCTACAGTTCCGCTTGCTGTGGTTTCAGTTAC Low

* * *

TGT: RUNX1 (UniProt Q01196)
Sequence (Q01196 whole entry): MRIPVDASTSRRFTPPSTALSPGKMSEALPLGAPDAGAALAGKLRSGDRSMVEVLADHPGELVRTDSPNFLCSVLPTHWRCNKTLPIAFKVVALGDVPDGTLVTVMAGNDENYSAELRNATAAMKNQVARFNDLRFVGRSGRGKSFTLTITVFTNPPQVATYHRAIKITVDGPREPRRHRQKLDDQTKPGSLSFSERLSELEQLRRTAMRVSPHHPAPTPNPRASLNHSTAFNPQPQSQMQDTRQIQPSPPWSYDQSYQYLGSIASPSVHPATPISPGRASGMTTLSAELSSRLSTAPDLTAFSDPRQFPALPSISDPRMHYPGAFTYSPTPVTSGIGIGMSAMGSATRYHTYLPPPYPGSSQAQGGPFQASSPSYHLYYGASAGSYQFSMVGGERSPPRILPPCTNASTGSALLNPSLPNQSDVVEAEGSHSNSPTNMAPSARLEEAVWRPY
METHOD NOTES: RUNX1 binding intensity (PBM fluorescence), RUNX1 alone (arbitrary fluorescence units); higher = stronger binding
CONDITION NOTES: RUNX1 concentration 2 nM; ETS1 concentration 0 nM
Classify by measured RUNX1 binding intensity: y if it is equal to or exceeds 800, n if it is smaller.

Is reported RUNX1 binding intensity greater than or equal to 800 here: CCTAGAACCGGAAGAGAAAGGGGCTGCGGTGCAGCA y

Is reported RUNX1 binding intensity greater than or equal to 800 here: TTACCCCAGGAAAAGCCTCCTCACCGCAGTGACCAG y

Is reported RUNX1 binding intensity greater than or equal to 800 here: CCGCCGCGACACTTCCGGCGGCCACCACAGGGTATT n

Is reported RUNX1 binding intensity greater than or equal to 800 here: TTTCTGACACTCTCAGGATGTGGGTTTTCACACTGT y

Is reported RUNX1 binding intensity greater than or equal to 800 here: CTGCGTTTCCTCTGAGTTTTGCATGTTGAGGTTGGA y

Is reported RUNX1 binding intensity greater than or equal to 800 here: GACTTTTACGGAAATAGCAGTCCAAAACCGCGTCTA y

Is reported RUNX1 binding intensity greater than or equal to 800 here: AACCTAGAAAAGGAAGCTGCGGTTTTTCAGGGTATG y

Is reported RUNX1 binding intensity greater than or equal to 800 here: TCATAAGGAAGTGGAGTGTAGTAACCACAGGCCCCG y

Is reported RUNX1 binding intensity greater than or equal to 800 here: AGCCACATCCTGGACAAAAGCTGTGGTCTAGTAACC y

Is reported RUNX1 binding intensity greater than or equal to 800 here: CCCAACCATTTCCGCCACACCTCCAACCCACTGCCG y

Is reported RUNX1 binding intensity greater than or equal to 800 here: CGTACGCGCACTTCCGGTCTTTGTGGCTTGCAGCTC y

Is reported RUNX1 binding intensity greater than or equal to 800 here: GCGCCCGGAAGGAAGGCTGGGGTAGGTTGTGGTTTC y

Is reported RUNX1 binding intensity greater than or equal to 800 here: TGTATGAAAAAAACAGGAAACCACAGAGAACTGAGG y

Is reported RUNX1 binding intensity greater than or equal to 800 here: AGGCCCACCTGCTGCGGATGTGGTCTCTGTGTGTGC n

Is reported RUNX1 binding intensity greater than or equal to 800 here: CTTAGAGTACCAGGATGTGGTTTGGCCTGGGGGTGG y

Is reported RUNX1 binding intensity greater than or equal to 800 here: GCAATGCCGCTACCGGAAGTGCGGGTCGCGCTCCCG n

Is reported RUNX1 binding intensity greater than or equal to 800 here: ATGCCTGTAGGAGGATGTGGTTTCTACACAACTCTG y

Is reported RUNX1 binding intensity greater than or equal to 800 here: CAGATCTGAAAGGGAAGTGGTTTCAAGAGGGTTCTT n

Is reported RUNX1 binding intensity greater than or equal to 800 here: CAAGTAATCTGCTCAGGAAGTGGTTTGAATAGAGGA n

Is reported RUNX1 binding intensity greater than or equal to 800 here: GTGAGAGGAAGTGGGCGCTGGTTTAATGTGGTCAGC y

Is reported RUNX1 binding intensity greater than or equal to 800 here: GGCAACCCAAGGAAGTATCTCTGAAACCACACAACA y

Is reported RUNX1 binding intensity greater than or equal to 800 here: TGCCGCGGATACCCAGCCAGCGGCAGTGCGGTTAAC y

Is reported RUNX1 binding intensity greater than or equal to 800 here: GTGCTAAGTGAGGAAGTGCAGTTTACCGCACGGTGG n

Is reported RUNX1 binding intensity greater than or equal to 800 here: ACCTTCGCCGGATGCTGTGGCTGAAACCACAGCATT y

Is reported RUNX1 binding intensity greater than or equal to 800 here: CCACCCTCCGTCCGGCCGCGACCGCGAGGAGGAAGA y

Is reported RUNX1 binding intensity greater than or equal to 800 here: TCCGCCCGCGGATGCTGAGAACCGCAGCTGCACAAG y

Is reported RUNX1 binding intensity greater than or equal to 800 here: AGTGGATAGCACTTCCTTCTCTTACCACAGTTCCTT y

Is reported RUNX1 binding intensity greater than or equal to 800 here: GTCTTACTTCCTGTCCCCGCCCACCGCGACTGTCTT y

Is reported RUNX1 binding intensity greater than or equal to 800 here: TTTGTTGTTCCGGGTGCGAGGCGGCCGCAGCTTCCA y

Is reported RUNX1 binding intensity greater than or equal to 800 here: AACCCACCGGATGGAAGCTGCCACTCAGCCGCAGGA y

Is reported RUNX1 binding intensity greater than or equal to 800 here: TTGGTCAGCCTGCTTCCGGCTGTGGCTTCAGTTAGT n

Is reported RUNX1 binding intensity greater than or equal to 800 here: GGAGGTGGGGAGGAAGTTCTGAAACCACACACATTT y

Is reported RUNX1 binding intensity greater than or equal to 800 here: CACCGCCGGAGTCCCGGATGTGGTTGCTAGGGCAGC n

Is reported RUNX1 binding intensity greater than or equal to 800 here: GATGGTGTCTTTTGGGGATGTGGGTTTGGGGGATGG y

Is reported RUNX1 binding intensity greater than or equal to 800 here: CCTGCGGATCACGGAAGTGGCTGCGGTCGGCGCCAT y

Is reported RUNX1 binding intensity greater than or equal to 800 here: GAAGCTACTCTGGTTTCCTGTGGTTTTCTGAGCACT y

Is reported RUNX1 binding intensity greater than or equal to 800 here: AGCTGTTTGGTCACAGGATGTGGTTATTAGAATAGG y

Is reported RUNX1 binding intensity greater than or equal to 800 here: ACTCCCTAGAGCAGGAAGCCTGTGGTTTGTAATTGG y

Is reported RUNX1 binding intensity greater than or equal to 800 here: CCAGCCGGAAGCCCCGCCCCCTAGAGGCACCGCGGA y

Is reported RUNX1 binding intensity greater than or equal to 800 here: TTGTCACGTCCGGCACGCCGCGAACCGCAAGGAACC y

Is reported RUNX1 binding intensity greater than or equal to 800 here: TTAGGCTCATGGGAAATGTGGTTTCTAAATCGCGGG y

Is reported RUNX1 binding intensity greater than or equal to 800 here: ATAGACCCAGCCCGTCCGGTAACCGCGCTCCTCGAT y

Is reported RUNX1 binding intensity greater than or equal to 800 here: CCCCTCACTTCCCTCAACCCTTCCCACAAACTGGGA y
